Entries and their measured logP follow.
Assay protocol: method code SF-HPLC, from DOI: 10.1002/jps.2600750811, PMID: 3772750

Molecule: CC[C@H](C(=O)OCc1ccccc1)[C@H](COC(=O)c1ccccc1)Cc1cncn1C
logP: 4.37
//
Molecule: CC[C@H](C(=O)OCc1ccc(Cl)cc1)[C@H](COC(=O)c1ccccc1)Cc1cncn1C
logP: 4.9
//
Molecule: CCC(C(=O)OCc1ccccc1)C(COC(=O)Cc1ccccc1)Cc1cncn1C (centres undefined)
logP: 4
//
Molecule: CC[C@H](C(=O)OCc1ccccc1)[C@H](COC(=O)c1cccnc1)Cc1cncn1C
logP: 3.05

* * *

Assay protocol: method code SF-HPLC, from DOI: 10.1002/jps.2600750811, PMID: 3772750
Experimental setup: pH 7.4

Molecule: CC[C@H](C(=O)OCc1ccc(C)cc1)[C@H](COC(=O)C(C)(C)C)Cc1cncn1C
logD: 4.4
--
Molecule: CC[C@H](C(=O)OCc1ccc(C)cc1)[C@H](COC(=O)c1ccccc1)Cc1cncn1C
logD: 4.7
--
Molecule: CC[C@H](C(=O)OCc1ccccc1)[C@H](COC(=O)c1cccc(Cl)c1)Cc1cncn1C
logD: 4.93
--
Molecule: CCCC(=O)OCC(Cc1cncn1C)C(CC)C(=O)OCc1ccccc1 (configuration not stated)
logD: 3.63
--
Molecule: CCCCCC(=O)OCC(Cc1cncn1C)C(CC)C(=O)OCc1ccccc1 (configuration not stated)
logD: 4.6
--
Molecule: CC[C@H](C(=O)OCc1ccc(C)cc1)[C@H](COC(C)=O)Cc1cncn1C
logD: 3.16
--
Molecule: CCCC(=O)OC[C@H](Cc1cncn1C)[C@H](CC)C(=O)OCc1ccc(C)cc1
logD: 4.19
